Tested on: NCI-H226 lung
Experiment: NCI-60 one-dose screen, 48 h (100 = growth as untreated, 0 = no growth, -100 = all killed)
Details: 10 µM unless noted
Compounds without any hit were thinned out: in the full panel of roughly 83,000, 20% have a hit.
PROPERTY MEASURED: growth (%)
Write the value in % as a bare number.

Worked set:
{"COMPOUND": "COc1cc(-c2ccc(-c3ccc(C(=N)N)s3)s2)cc(OC)c1OC", "growth [%]": 89.4}
{"COMPOUND": "CC(=O)O[C@H]1C[C@@]2(C)[C@@H](C[C@@H](O)[C@H]3[C@@]4(C)CC[C@H](N5CCCC5)[C@@H](C)[C@@H]4CC[C@@]32C)/C1=C(\\CCC=C(C)C)C(=O)O", "growth [%]": 94.6}
{"COMPOUND": "COc1ccc(C(=O)C2OC3=C(C(=O)CC(C)(C)C3)C2c2cccc(Oc3ccccc3)c2)cc1 (configuration not stated)", "growth [%]": 86.9}
{"COMPOUND": "CCOC(=O)CC1CSC(N/N=C/c2ccc(O)cc2)=N1 (configuration not stated)", "growth [%]": 105}
{"COMPOUND": "COc1cccc(/C=C2\\CCc3ccccc3C2=O)c1", "growth [%]": 93.6}
{"COMPOUND": "N#Cc1c(-c2ccc(F)cc2)cc(-c2cccc(Cl)c2)[nH]c1=O", "growth [%]": 54.1}
{"COMPOUND": "COc1ccc(-n2c(=O)n(-c3ccc(-c4nc5ccc(F)cc5s4)cc3)c(=O)c3cccnc32)cc1", "growth [%]": 105}
{"COMPOUND": "CCOC(=O)c1cc(C(=O)c2cc(OC)cc(OC)c2)n2ccccc12", "growth [%]": 73.5}

Check the records and state growth for Oc1cccc(-c2nc(-c3n[nH]c(=S)n3-c3ccccc3)cc3c2[nH]c2ccccc23)c1
52.6

Report measured growth; entry is O=C(Nc1ccccc1)Nc1ccccc1CNc1nc(Nc2ccc(OCCN3CCCC3)cc2)ncc1Cl
89.4

State its growth for this compound: O=C(c1ccc(F)cc1)C1CCN(CCn2c(=O)[nH]c3ccccc3c2=O)CC1
97.8

====

Tested on: M14 melanoma
Test: NCI-60 one-dose screen, 48 h (100 = growth as untreated, 0 = no growth, -100 = all killed)
Conditions: 10 µM unless noted
This is part of a sample that, as a whole, favours compounds with a hit. Of some 83,000 tested, about 20% had one in any assay.
PROPERTY MEASURED: growth (%)
Please give a number only; it is taken to be in %.

{"COMPOUND": "C#Cc1c(I)n(C2OC(CO[Si](C)(C)C(C)(C)C)C3OC(C)(C)OC32)c(=O)[nH]c1=O (centres undefined)", "UNIT LABEL": "%", "NUMBER": 76.4}
{"COMPOUND": "O=S(=O)(c1ccc(NCSc2nc3ccccc3s2)cc1)c1ccc(NCSc2nc3ccccc3s2)cc1", "UNIT LABEL": "%", "NUMBER": 96.1}
{"COMPOUND": "Nc1nc(N)c2c(n1)NC(c1cccc(Nc3ccnc4cc(C(F)(F)F)ccc34)c1)CC(c1ccc(Cl)cc1)=N2 (centres undefined)", "UNIT LABEL": "%", "NUMBER": 29.7}
{"COMPOUND": "Nc1nc(=O)n([C@H]2CC=C(CO)O2)cc1F", "UNIT LABEL": "%", "NUMBER": 105}
{"COMPOUND": "CN1CCN(Cc2ccc(NC(=O)c3cncc(C#Cc4cnc(N)c5ccc(C#N)cc45)c3)cc2C(F)(F)F)CC1", "UNIT LABEL": "%", "NUMBER": -83.9}
{"COMPOUND": "Cc1ccc2c(c1)CC(O)CC1C(=O)N(CCO)CC(=O)N21 (centres undefined)", "UNIT LABEL": "%", "NUMBER": 103}
{"COMPOUND": "COc1ccc(/C=C2/CCc3cc4ccc(OC)cc4[o+]c32)c(O)c1", "UNIT LABEL": "%", "NUMBER": 26}
{"COMPOUND": "COc1ccc(-c2csc(NC(=O)CSc3nc(C)cc(=O)[nH]3)n2)cc1", "UNIT LABEL": "%", "NUMBER": 107}

Fill in reported growth for this entry: COc1ccc(C(c2cc(OC)c(OC)c(OC)c2)n2cncn2)cc1O (centres undefined)
-1.61

Item CCOc1cc(\C=N/N=C(N)/C(N)=N\N=C/c2ccc(O)c(OCC)c2)ccc1O : provide growth
113

For COc1ccc(C(=O)C2OC3=C(C(=O)CC(C)(C)C3)C2c2cccc(Oc3ccccc3)c2)cc1 (centres undefined) , write its growth.
98.7

Output growth of COC(=O)c1sc(-c2ccc(C)cc2)cc1O
101

Please indicate growth recorded for O=C1C2C(c3cccs3)C=C(c3ccc(Cl)cc3)N2C(=S)N1c1ccccc1 (centres undefined)
101

Answer with the recorded growth for the compound listed here: COC(CCP(=O)(c1ccccc1)c1ccccc1)(C(=O)c1ccccc1)c1ccccc1 (centres undefined)
63

Provide growth value for the following compound: FC(F)(F)c1cccc(-c2nnn(Cc3cc(-c4cccc(Cl)c4)no3)n2)c1
101
